Ref: PubChem BioAssay

Here, each record is paired with measured nuclei count data.
- test description: reduction of polyQ htt aggregates in cells – imaging, exon1htt(103Q)mCFP cells, high-content imaging, primary screen (AID 483);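 further: compound exposure lasted 3 days before fixation; percent of the per-plate median nuclei count of sample wells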
- study conditions: exon1htt(103Q)mCFP cell line, aggregate imaging, at 2 µM; measured here: cell count, toxicity
property: nuclei count (%)

> print(dat)
                                    compound      property  unit.info  measurement
 1      COc1cc(C)nc(NS(=O)(=O)c2ccc(C)cc2)n1  nuclei count          %         97.2
 2     Cc1nc(CNS(=O)(=O)c2ccc3c(c2)OCCO3)cs1  nuclei count          %          106
 3     CCOC(=O)C1CCN(C(=O)c2ccc(OC)cc2OC)CC1  nuclei count          %         97.6
 4  CCOC(=O)N1CCN(C(=O)C(NS(=O)(=O)c2cccc3nsnc23)c2ccccc2)CC1 (stereo not drawn)  nuclei count          %          106
 5  Cc1ccnc(NS(=O)(=O)c2ccc(N=CC3=C(O)CC(C)(C)CC3=O)cc2)n1  nuclei count          %         79.4
 6               O=C(O)CCN1C(=O)c2ccccc2C1=O  nuclei count          %         91.2
 7  O=C(CN(Cc1ccco1)C(=O)CNS(=O)(=O)c1ccc(Cl)cc1)NCc1ccc(F)cc1  nuclei count          %         97.5
 8   O=C(NC1CCCC1)c1ccc(S(=O)(=O)N2CCCC2)cc1  nuclei count          %          104
 9  Cc1ccc(F)cc1NC(=O)Cc1nn(C)c(=O)c2ccccc12  nuclei count          %         93.3
10  Cc1ccnc(NC(=O)CCC(=O)N(CC(=O)NC2CCCCC2)c2cccc(C)c2C)c1  nuclei count          %          103
11  C=C(C)CSc1nnc(-c2cccc(S(=O)(=O)N(C)C)c2)n1-c1cc(OC)ccc1OC  nuclei count          %          123
12  COC(=O)C1=C(C)Nc2nnnn2C1c1ccc(Cl)cc1Cl (stereo not drawn)  nuclei count          %          105
13           COc1cccc2c(=O)c3c(cnn3C)n(C)c12  nuclei count          %         52.8
14  CCc1cc(-c2[nH]ncc2-c2ccc3c(c2)OCO3)c(O)cc1O  nuclei count          %         97.8
15  CCCCn1c(SCC(=O)c2ccc3c(c2)OCCO3)nnc1-c1ccco1  nuclei count          %          108
16  COc1ccc(N(CC(=O)N2CCN(Cc3ccc4c(c3)OCO4)CC2)S(C)(=O)=O)cc1OC  nuclei count          %          120
17    Cn1c(Cc2cccs2)nnc1SCC(=O)N1CCc2ccccc21  nuclei count          %         93.4
18      Cc1cncn1CCc1nc2c3ccccc3nc(=S)n2[nH]1  nuclei count          %         67.3
19               Cc1cccc(NC(=O)CCn2ccnc2C)c1  nuclei count          %         96.8
20  Cc1ccc(S(=O)(=O)N2CCCC2)cc1S(=O)(=O)N1CCCC1  nuclei count          %          111
21  COc1ccccc1N1CCN(C(=O)c2oc3cc(C)c(C)cc3c2C)CC1  nuclei count          %          101
22  O=C(NC1CC2CCC1C2)C1COc2ccccc2O1 (stereo not drawn)  nuclei count          %         89.3
23  CC(C(=O)NCCCN1CCOCC1)n1cccc1C(=O)c1ccccc1 (stereo not drawn)  nuclei count          %          104
